Attribution: the supplement of paper PMC10724198

The following sequences are shown together with reported protein stability index values.
# Test system: Saccharomyces cerevisiae
# Assay: protein stability index of tFT-peptide fusion (C-terminal peptide) (PSI (0-1 scale)); higher = more stable (slower turnover);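 further: PSI is a weighted mean of sequencing reads over stability bins, variants kept only with over 10 reads, mCherry proximal and sfGFP distal, peptide attached via GGGS linker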
# Experimental Context: genetic background: das1 deletion; temperature: 37 C

Worked examples, 8 sequences total:
GPTLLVSRIAVI: 0.565
SDGGVVRGGCRG: 0.714
GPFGVGALVCCM: 0.503
AFFCTLCLFLVS: 0.496
FFVFYICSCFLV: 0.484
GFLVPSSPRCHQ: 0.72
GVFRYKLILRKM: 0.634
ILLYCVLIDPYS: 0.352

Problem: Consider the sequence shown here: `FLSVPHLLFLFI` What is its recorded protein stability index?
Result: 0.619

Problem: Consider the sequence shown here: `QGRRKEKAVTLN` What is its recorded protein stability index?
Result: 0.729

Problem: Consider the sequence shown here: `LSLWPIFGIIYC` What is its recorded protein stability index?
Result: 0.516

Problem: Consider the sequence shown here: `GIFVRIVCIDVA` What is its recorded protein stability index?
Result: 0.302

----------
# Tested on: Saccharomyces cerevisiae
# Assay: protein stability index of tFT-peptide fusion (C-terminal peptide) (PSI (0-1 scale)); higher = more stable (slower turnover)
# Experimental Context: genetic background: cdc53-1; temperature: 37 C
Test Readout: protein stability index
Please give the numeric answer without any surrounding text.

Problem: Consider the sequence shown here: `LSARVFCFWFFS` What is its recorded protein stability index?
Result: 0.635

Problem: Consider the sequence shown here: `LVLGVEVCFVLG` What is its recorded protein stability index?
Result: 0.16

----------
# Tested on: Saccharomyces cerevisiae
# Assay: protein stability index of tFT-peptide fusion (C-terminal peptide) (PSI (0-1 scale)); higher = more stable (slower turnover)
# Experimental Context: genetic background: wild type; temperature: 30 C
Think of 0.7 as a floor: if protein stability index stands on it or above, it is Satisfied; beneath it, Not satisfied.

Use the examples below as a reference point.
RLVFDTGPPFIN: Not satisfied
FGSFVVWGVWWG: Not satisfied
LAINVRRELLFF: Not satisfied
GQLMRPSFSVSC: Not satisfied
TPTPPPSFLHGS: Not satisfied

Problem: Check if protein stability index >= 0.7 (inclusive). Item: `VGQGVPEGGGQW`
Result: Satisfied

Problem: Check if protein stability index >= 0.7 (inclusive). Item: `PAPPSPPPHSSP`
Result: Satisfied

Problem: Check if protein stability index >= 0.7 (inclusive). Item: `TVETYNRARKAS`
Result: Not satisfied

Problem: Check if protein stability index >= 0.7 (inclusive). Item: `ICMGSLLYVGPC`
Result: Not satisfied

Problem: Check if protein stability index >= 0.7 (inclusive). Item: `TPYIFVLACLHV`
Result: Not satisfied

Problem: Check if protein stability index >= 0.7 (inclusive). Item: `PLCVICRRWGAS`
Result: Not satisfied

----------
# System: Saccharomyces cerevisiae
# Assay: protein stability index of tFT-peptide fusion (C-terminal peptide) (PSI (0-1 scale)); higher = more stable (slower turnover)
# Experimental Context: genetic background: das1 deletion; temperature: 30 C
Test Readout: protein stability index
Please give the numeric answer without any surrounding text.

Worked examples, 8 sequences total:
PRQGGDFVARVG: 0.638
ARWNTDRRRRQL: 0.688
LRVLSVVRLSVW: 0.407
RQINEKKKLYMI: 0.639
VRIGCSLLFFLP: 0.589
GFESTCSLLCVF: 0.314
SSGRLRFISRIH: 0.656
RGVGSGGLEGIG: 0.518

Problem: Consider the sequence shown here: `DNLYSLEFMAIR` What is its recorded protein stability index?
Result: 0.647

Problem: Consider the sequence shown here: `LVVWASLVRVEG` What is its recorded protein stability index?
Result: 0.252

Problem: Consider the sequence shown here: `LFVFVLAGFCCV` What is its recorded protein stability index?
Result: 0.32

Problem: Consider the sequence shown here: `LWVSHFVILIVS` What is its recorded protein stability index?
Result: 0.135

Problem: Consider the sequence shown here: `CVILVVISGLLG` What is its recorded protein stability index?
Result: 0.199

Problem: Consider the sequence shown here: `FFRAYLQMYVTD` What is its recorded protein stability index?
Result: 0.413

Problem: Consider the sequence shown here: `CFLLSYRWVFLC` What is its recorded protein stability index?
Result: 0.177

Problem: Consider the sequence shown here: `QKGLFYCVILYC` What is its recorded protein stability index?
Result: 0.214

Problem: Consider the sequence shown here: `SCLLVVVSTSGN` What is its recorded protein stability index?
Result: 0.404

Problem: Consider the sequence shown here: `RSCKSIRGIFVC` What is its recorded protein stability index?
Result: 0.543

Problem: Consider the sequence shown here: `AWWMALAVPIVA` What is its recorded protein stability index?
Result: 0.103

Problem: Consider the sequence shown here: `IVGVLAVLVRPV` What is its recorded protein stability index?
Result: 0.369
